Cited source for all entries: patent US10479795B2

# measured.target: PI3Kδ (p110δ/p85α) Recombinant Human Protein (Homo sapiens (Human), UniProt O00329)
# Sequence (O00329 whole entry): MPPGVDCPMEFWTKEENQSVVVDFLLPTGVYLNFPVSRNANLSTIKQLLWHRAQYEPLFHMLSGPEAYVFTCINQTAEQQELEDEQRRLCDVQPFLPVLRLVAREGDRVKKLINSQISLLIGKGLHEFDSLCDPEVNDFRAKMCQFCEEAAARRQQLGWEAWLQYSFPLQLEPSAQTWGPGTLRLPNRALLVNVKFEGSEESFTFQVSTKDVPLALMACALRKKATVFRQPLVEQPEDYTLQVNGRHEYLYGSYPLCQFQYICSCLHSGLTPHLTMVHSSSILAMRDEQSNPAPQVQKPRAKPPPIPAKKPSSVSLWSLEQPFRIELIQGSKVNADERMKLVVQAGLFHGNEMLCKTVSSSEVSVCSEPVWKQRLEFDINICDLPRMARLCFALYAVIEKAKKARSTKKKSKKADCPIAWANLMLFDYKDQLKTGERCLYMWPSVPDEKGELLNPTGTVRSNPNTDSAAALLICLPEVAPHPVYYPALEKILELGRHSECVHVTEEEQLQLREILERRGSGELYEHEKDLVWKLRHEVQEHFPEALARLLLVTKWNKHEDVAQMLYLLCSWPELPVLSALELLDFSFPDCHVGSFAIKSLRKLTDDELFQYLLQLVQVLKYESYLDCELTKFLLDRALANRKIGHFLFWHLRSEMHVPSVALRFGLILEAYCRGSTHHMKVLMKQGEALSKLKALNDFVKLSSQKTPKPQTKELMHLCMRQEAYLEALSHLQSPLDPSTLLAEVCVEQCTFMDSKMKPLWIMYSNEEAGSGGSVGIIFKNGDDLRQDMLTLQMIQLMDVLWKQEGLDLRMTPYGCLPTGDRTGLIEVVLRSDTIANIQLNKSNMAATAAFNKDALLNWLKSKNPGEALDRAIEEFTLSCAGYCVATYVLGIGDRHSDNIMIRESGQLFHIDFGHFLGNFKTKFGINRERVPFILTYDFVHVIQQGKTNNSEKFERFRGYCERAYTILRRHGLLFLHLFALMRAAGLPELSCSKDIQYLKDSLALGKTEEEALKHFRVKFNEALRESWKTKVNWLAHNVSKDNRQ
# Sequence (P27986 whole entry partner): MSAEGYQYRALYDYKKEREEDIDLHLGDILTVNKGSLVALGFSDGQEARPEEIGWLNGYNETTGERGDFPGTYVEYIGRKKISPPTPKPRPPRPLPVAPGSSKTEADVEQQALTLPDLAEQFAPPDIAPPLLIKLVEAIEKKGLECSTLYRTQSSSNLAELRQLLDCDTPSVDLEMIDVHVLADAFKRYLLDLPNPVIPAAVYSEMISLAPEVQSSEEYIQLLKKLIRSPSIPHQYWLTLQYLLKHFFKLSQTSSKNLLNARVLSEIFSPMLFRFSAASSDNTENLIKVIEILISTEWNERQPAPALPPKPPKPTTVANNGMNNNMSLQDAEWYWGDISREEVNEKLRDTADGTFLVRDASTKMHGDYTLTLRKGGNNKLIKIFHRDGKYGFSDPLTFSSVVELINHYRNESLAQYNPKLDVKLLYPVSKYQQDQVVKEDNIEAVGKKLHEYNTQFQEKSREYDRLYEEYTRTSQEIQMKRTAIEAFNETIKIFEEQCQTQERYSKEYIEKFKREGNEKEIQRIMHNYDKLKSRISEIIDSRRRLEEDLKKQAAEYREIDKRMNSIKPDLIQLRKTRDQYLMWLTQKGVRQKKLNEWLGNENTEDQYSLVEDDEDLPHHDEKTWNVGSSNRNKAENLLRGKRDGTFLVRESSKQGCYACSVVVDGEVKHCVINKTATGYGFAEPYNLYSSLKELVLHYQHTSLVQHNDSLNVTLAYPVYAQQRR
# test.summary: PI3Kδ Scintillation Proximity Assay
# Format: biochemical
Where a name gives a salt, the structure may show the parent alone.
measured.attribute: IC50

In the examples that follow, each entry is paired with its recorded IC50.
{"molecule": "Cc1ccc(S(=O)(=O)NC23CC(c4nnn[nH]4)(C2)C3)cc1-c1cnc2c(N)nc(C(F)(F)F)cn12 [Example 292, trifluoroacetate salt]", "measured.target": "PI3Kδ (p110δ/p85α) Recombinant Human Protein (Homo sapiens (Human), UniProt O00329)", "IC50": "500 to 2000 nM"}
{"molecule": "Cc1ccc(S(=O)(=O)N2CCCC(NC(=O)OC(C)(C)C)C2)cc1-c1cnc2c(N)nc(C(F)(F)F)cn12 (stereo not shown)", "measured.target": "PI3Kδ (p110δ/p85α) Recombinant Human Protein (Homo sapiens (Human), UniProt O00329)", "IC50": "> 2000 nM"}
{"molecule": "Cc1ccc(S(=O)(=O)N2CCCC(C)(CO)C2)cc1-c1cnc2c(N)nc(C(F)(F)F)cn12 (stereo not shown)", "measured.target": "PI3Kδ (p110δ/p85α) Recombinant Human Protein (Homo sapiens (Human), UniProt O00329)", "IC50": "100 to 500 nM"}

Q. Field request: IC50 | item: Cc1ccc(S(=O)(=O)N2CCN(C)C(=O)C2)cc1-c1cnc2c(N)nc(C(F)(F)F)cn12
A. 500 to 2000 nM
